The reported measurements were obtained from patent US7288567B2.

# Tested on: histone deacetylase enzyme in nuclear extracts from H446 cells (pooled HDACs)
# Run description: Histone deacetylase inhibition, H446 nuclear extracts (pooled HDACs)
# Type: biochemical, human
# Test conditions: H446 nuclear extract, [3H]-acetylated histone substrate
# Description: HDAC inhibitors were screened against histone deacetylase enzyme in nuclear extracts prepared from the human small cell lung cancer cell line H446 (ATTC HTB-171) and against a cloned recombinant human HDAC-1 enzyme expressed and purified from a Baculovirus insect cell expression system. […]
pIC50: −log10 of the molar value.
Recorded endpoint: pIC50

>>> recorded_measurement("CN(c1ccccc1)c1ccc(C(=O)CCCCCCC(=O)NO)cc1 [Compound 138b]")
7.31
>>> recorded_measurement("CC(CCCCCC(=O)c1ccc2ccccc2c1)C(=O)NO (stereo not drawn)")
5.60
>>> recorded_measurement("O=C(CCCCCCC(=NO)c1cc2ccccc2o1)NO (mixture of isomers)")
7.40
>>> recorded_measurement("CC(=O)SCC(=O)CCCCCC(=O)c1cc2ccccc2s1")
7.10
>>> recorded_measurement("O=C(CS)CCCCCCC(=O)c1ccccc1 [Compound 159e, 1-Mercapto-2,9-dioxo-9-phenyl-nonane]")
7.30
>>> recorded_measurement("CC(=O)SCC(=O)CCCCCCC(=O)c1cc2ccccc2s1")
7.40
>>> recorded_measurement("O=C(CCCCCCC(=O)c1ccc(C(F)(F)F)cc1)NO [Compound 52c]")
6.26
>>> recorded_measurement("COc1ccc(C(OC)C(C)(C)/C=C/C=C/C(=O)NO)cc1 (stereo not drawn)")
5.30

---

Measured IC50 values are reported for all entries that follow.
# Study target: recombinant human HDAC-1 enzyme (rHDAC-1) (Homo sapiens)
# Construct: made in house; host or cells: Baculovirus insect cell expression system
# Sequence (Q13547 whole entry): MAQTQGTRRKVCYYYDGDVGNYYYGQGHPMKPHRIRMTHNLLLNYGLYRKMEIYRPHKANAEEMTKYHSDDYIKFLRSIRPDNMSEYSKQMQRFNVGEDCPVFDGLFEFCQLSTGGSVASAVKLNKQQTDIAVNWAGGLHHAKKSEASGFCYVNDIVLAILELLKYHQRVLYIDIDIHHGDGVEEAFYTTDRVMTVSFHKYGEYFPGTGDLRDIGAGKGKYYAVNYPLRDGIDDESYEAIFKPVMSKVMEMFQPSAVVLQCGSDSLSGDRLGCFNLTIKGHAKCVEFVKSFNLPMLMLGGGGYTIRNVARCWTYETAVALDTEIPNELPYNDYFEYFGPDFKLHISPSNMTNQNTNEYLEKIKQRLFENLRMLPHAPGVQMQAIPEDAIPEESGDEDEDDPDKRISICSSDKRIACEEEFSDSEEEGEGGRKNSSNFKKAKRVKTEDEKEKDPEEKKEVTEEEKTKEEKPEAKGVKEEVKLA
# Run description: Histone deacetylase inhibition, recombinant human HDAC-1
# Assay type: biochemical
# Test conditions: cloned recombinant human HDAC-1, Baculovirus insect cell expression; read-out: rHDAC-1 IC50
Recorded endpoint: IC50 (µM)

>>> recorded_measurement("O=C(CCCCCCC(=O)c1cc2ccccc2s1)NO [Compound 52m]")
0.01
>>> recorded_measurement("O=C(CCCCCC(=O)c1cc2ccccc2s1)NO")
0.13
>>> recorded_measurement("O=C(CCCCCCC(=O)c1ccc(-c2ccccc2)cc1)Nc1ccccc1O")
7.8
>>> recorded_measurement("Nc1ccccc1NC(=O)CCCCCN1Cc2ccccc2C1=O")
4
>>> recorded_measurement("O=C(CCCCCCC(=O)c1ccc(N2CCOCC2)cc1)NO [Compound 138i]")
0.033
>>> recorded_measurement("Nc1ccccc1NC(=O)CCCCCCN1C(=O)c2ccccc2C1=O [Compound 243c]")
4
>>> recorded_measurement("COc1ccc(-c2ccc(C(=O)CCCCCCC(=O)NO)cn2)cc1OC")
0.05
>>> recorded_measurement("COc1ccc(NC(=O)CCCCCCC(=O)c2ccc(-c3ccccc3)cc2)c(N)c1")
25
>>> recorded_measurement("CC(CCCCC(=O)c1ccc2ccccc2c1)CC(=O)Nc1ccccc1N (stereo not drawn)")
16

---

# Study target: recombinant human HDAC-1 enzyme (rHDAC-1) (Homo sapiens)
# Construct: made in house; host or cells: Baculovirus insect cell expression system
# Run description: Histone deacetylase inhibition, recombinant human HDAC-1
# Format: biochemical
# Test conditions: cloned recombinant human HDAC-1, Baculovirus insect cell expression; read-out: rHDAC-1 IC50
IC50 vs 0.1 µM: less than gives fulfilled; not less than gives not fulfilled.

>>> answer_label("COc1ccc(N)c(NC(=O)CCCCCCC(=O)c2ccc(-c3ccccc3)cc2)c1 [Compound 83]")
"not fulfilled"
>>> answer_label("Nc1ccccc1NC(=O)CCCCS(=O)(=O)CC(=O)c1ccc(-c2ccccc2)cc1 [Compound 230b]")
"not fulfilled"
>>> answer_label("CC(/C=C/C(=O)Nc1ccccc1N)=C\\C(C)Cc1ccc(N(C)C)cc1 (centres unmarked) [Compound 39]")
"not fulfilled"
>>> answer_label("Nc1ccccc1NC(=O)NCCCCCC(=O)c1ccc(-c2ccccc2)cc1 [Compound 92]")
"not fulfilled"
>>> answer_label("O=C(CCCCCCC(=O)c1ccc(Nc2ccccn2)cc1)NO [Compound 138d]")
"fulfilled"
>>> answer_label("O=C(CCCCS(=O)(=O)CC(=O)c1ccc(-c2ccccc2)cc1)NO [Compound 229b]")
"fulfilled"
